Recorded IC50 values for a group of binders are listed next.
# test_target: T1, human MCH-1R (human, UniProt Q99705 1-353)
# T1 construct: also called MCH-R1
# T1 sequence (Q99705 whole entry, form in doubt): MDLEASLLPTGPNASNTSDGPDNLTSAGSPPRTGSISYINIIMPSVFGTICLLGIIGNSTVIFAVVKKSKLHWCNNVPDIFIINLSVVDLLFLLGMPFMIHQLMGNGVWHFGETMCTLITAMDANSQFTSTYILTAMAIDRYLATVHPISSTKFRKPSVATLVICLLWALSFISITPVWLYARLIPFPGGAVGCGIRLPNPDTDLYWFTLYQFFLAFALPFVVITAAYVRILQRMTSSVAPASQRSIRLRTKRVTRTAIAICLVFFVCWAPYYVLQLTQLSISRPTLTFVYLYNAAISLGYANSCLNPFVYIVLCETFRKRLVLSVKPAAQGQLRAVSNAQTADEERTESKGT
# assay_method_text: SPA competition with [125I]-human MCH (Phe13, Tyr19) on receptor membranes
# Procedure: For the SPA-based assay, WGA-PVT beads (NEN Life Sciences Products) were resuspended in Dulbecco's PBS with calcium and magnesium (500 mg beads in 4 ml PBS). […] Coated beads were kept on ice until use. […] Quantitation was performed by scintillation counting (TopCount device).
Bridges are numbered along the chain shown (N, C = ends). Where no end group is shown, it is not given here.
property_label: IC50

binder="DFDMLRCMAGRVYRPCWQV (disulfide 7-16, also called Ala^9) [SEQ. ID. NO. 48]" observed_result="0.9 nM"
binder="DFDMLRCMLGRVYAPCWQV (disulfide 7-16, also called Ala^14) [SEQ. ID. NO. 52]" observed_result="1.4 nM"
binder="DFDMLRCMLGRVYRPCWAV (disulfide 7-16, also called Ala^18) [SEQ. ID. NO. 55]" observed_result="0.7 nM"
